Listed here: items and their measured Strength (GFP, au).
Test system: P. protegens Pf-5
procedure-text: Genetic part characterization for P. protegens (promoters, RBSs, terminators, inducible systems; fluorescence reporter, flow cytometry)
Type: cell-based, Pseudomonas protegens
condition-set: synthetic RBS strength in P. protegens Pf-5; plasmid pMR-65, arabinose-inducible system, 7 μM arabinose induction
Provide the reading as a plain figure in au.

[[record]]
substance = "R135132 (DNA CTAGCGAAGGTCCAACGTTTTTCTAAGCAAGGAGGTCATATG; chemistry not fully specified)"
property = "Strength (GFP, au)"
value_observed = 21590

[[record]]
substance = "RBSp4 (DNA CTAGCGCAGGTCCAACGTTTTTCTAAGCCAGGAGGTCATATG; expressed or natural sequence)"
property = "Strength (GFP, au)"
value_observed = 19490

[[record]]
substance = "RBSp12 (DNA GAATTCTCAACTAACGGACAGGAGGGTCCGATG; expressed or natural sequence)"
property = "Strength (GFP, au)"
value_observed = 9590

[[record]]
substance = "RBSp11 (DNA GAATTCTACGCTAACGGACAGGAGGGTCCGATG; expressed or natural sequence)"
property = "Strength (GFP, au)"
value_observed = 10390

[[record]]
substance = "RBSp24 (DNA GAATTCTCAACTCACGGACAGGAGGGTCGGATG; expressed or natural sequence)"
property = "Strength (GFP, au)"
value_observed = 3661

[[record]]
substance = "RBSp9 (DNA GAATTCTTAACTAACGGACAGGAGGGTCCGATG; expressed or natural sequence)"
property = "Strength (GFP, au)"
value_observed = 11490

[[record]]
substance = "RBSp6 (DNA GAATTCTACACTAACGGACAGGAGGGTCCGATG; expressed or natural sequence)"
property = "Strength (GFP, au)"
value_observed = 14490

[[record]]
substance = "R135133 (DNA CTAGCGAAGGTCCAACGTTTTTCTAAGCCAGGAGGTCATATG; chemistry not fully specified)"
property = "Strength (GFP, au)"
value_observed = 19690


stdin: Using the record for RBSp22 (DNA GAATTCTACACTCACGGACAGGAGGGTCGGATG; expressed or natural sequence) , state its measured Strength (GFP, au).
stdout: 3977

stdin: Respond only with Strength (GFP, au) recorded for RBSp30 (DNA GAATTCTACGCTCACGGACAGCAGGGTCGGATG; expressed or natural sequence)
stdout: 221

----------
Tested on: R. sp. IRBG74
procedure-text: Genetic part characterization for Rhizobia (promoters, RBSs, terminators, inducible systems; fluorescence reporter, flow cytometry)
Format: cell-based, Rhizobium sp.
condition-set: synthetic RBS strength in R. sp. IRBG74; plasmid pMR-40, IPTG-inducible system, 1 mM IPTG induction
Text: Construction and characterization genetic parts for Rhizobia. Genetic part libraries were built on a pBBR1-ori plasmid pMR-1 using Gibson assembly (New England Biolabs, Cat # E2611). The fluorescence proteins, GFPmut3b and mRFP1 were used as reporters. […] Terminators for T7 RNAP were characterized by placing a terminator between two fluorescence reporters expressed from a single T7 wild-type promoter located upstream of the first fluorescence protein GFP. […]
Yes if Strength (GFP, au) is below 1000 au. No if not; exact matches included in No.

// below: answered substances
[[record]]
substance = "RB5r7 (DNA TAACAATTTCACACATCTAGAGCTAATCTTCGCGTACTAAAGAGGCAAGTAATG; chemistry not fully specified)"
class_label = "No"

[[record]]
substance = "RBST-21 (DNA TAACAATTTCACACATCTAGAGCTAATCATCGCGTACTCAGCAGGCAAGTAATG; chemistry not fully specified)"
class_label = "Yes"

[[record]]
substance = "RBST-18 (DNA TAACAATTTCACACATCTAGAGCTAATCATCGCGTACTCAATAGGCCAGTAATG; chemistry not fully specified)"
class_label = "Yes"

[[record]]
substance = "RBST-26 (DNA TAACAATTTCACACATCTAGAGCTAATCATCTCGTACTAAGCACGCAAGTAATG; chemistry not fully specified)"
class_label = "Yes"

[[record]]
substance = "RBST-22 (DNA TAACAATTTCACACATCTAGAGCTAATCTTCGCGTACTAAGTAGGCAAGTAATG; chemistry not fully specified)"
class_label = "Yes"

[[record]]
substance = "RB5r4 (DNA TAACAATTTCACACATCTAGAGCTAATCATCTCGTACTAAAGAGGCAAGTAATG; chemistry not fully specified)"
class_label = "No"


stdin: Does the reported Strength (GFP, au) of RB5r3 (DNA ATTTCACACATCTAGAATTAAAGAGGAGAAATTAACCATG; chemistry not fully specified) stay below 1000 au?
stdout: No

stdin: Take the substance RB5r1 (DNA ATTTCACACATCTAGAGCTAATCATCTCGTACTAAAGAGGAGAAATTAACCATG; chemistry not fully specified) and say whether its Strength (GFP, au) is less than 1000 au.
stdout: No
